Assay: Cytotoxicity assay (MTT), J774A.1 cell line
Format: cell-based
Conditions: mouse, J774A.1 macrophage cells; 48 h incubation, MTT; read-out: CC50 ± SD, J774A.1 Cell Line
Each entry belongs to exactly one class, chosen by where its CC50 at 48 h falls: low value = under 50 µM, medium value = from 50 µM up to 500 µM, high value = 500 µM and over

Sort into band: Cn1nnc(NCC2CCC3(CC2)OOC2(O3)C3CC4CC(C3)CC2C4)n1 (stereo not drawn)
low value

Sort into band: C1C2CC3CC1CC(C2)C31OOC2(CCC(Nc3nnn[nH]3)CC2)O1 (stereo not drawn)
medium value

Sort into band: c1ccc(-n2nnnc2OCC2CCC3(CC2)OOC2(O3)C3CC4CC(C3)CC2C4)cc1 (stereo not drawn)
low value

---
Sort into band: C1C2CC3CC1CC(C2)C31OOC2(CCC(Nc3nnn[nH]3)CC2)OO1 (stereo not drawn)
medium value

Sort into band: O=S1(=O)N=C(OCC2CCC3(CC2)OOC2(O3)C3CC4CC(C3)CC2C4)c2ccccc21 (stereo not drawn)
medium value

Sort into band: `O=C1CCC2(CC1)OOC1(OO2)C2CC3CC(C2)CC1C3`
high value

Sort into band: OCC1CCC2(CC1)OOC1(OO2)C2CC3CC(C2)CC1C3 (stereo not drawn)
high value

Sort into band: OCC1CCC2(CC1)OOC1(O2)C2CC3CC(C2)CC1C3 (stereo not drawn)
low value

Sort into band: CCOC(=O)C1CCC2(CC1)OOC1(OO2)C2CC3CC(C2)CC1C3 (stereo not drawn)
high value
